Source of measurements: paper PMC8205226

# Tested on: HIV-1 IN mutant R231G
# Assay: single-round infectivity assay, R231G IN mutant
# Type: cell-based
# Details: fold change in EC50, IN mutant versus WT HIV-1
Measured property: FC R231G
// no unit string in output, number only

These recorded examples may help you get a feel for the data.
Compound | Readout number
Nc1c(C(=O)NCc2ccc(F)cc2F)c(=O)n(O)c2ncc(CCCCCCO)cc12 [4d] | 0.6
Nc1c(C(=O)NCc2ccc(F)cc2F)c(=O)n(O)c2ncc(CCS(=O)(=O)CCN3CCOCC3)cc12 [6v] | 0.7
O=C(NCc1ccc(F)cc1F)c1c(O)c2cc(CCS(=O)(=O)c3ccccc3)cnc2n(O)c1=O [6w] | 1.4

--- query ---
Which FC R231G reading was recorded for the compound Nc1c(C(=O)NCc2ccc(F)cc2F)c(=O)n(O)c2ncc(CCS(=O)(=O)c3ccccc3)cc12 [4f] ?
1.0

====

# Tested on: HIV-1 IN mutant R231K
# Assay: single-round infectivity assay, R231K IN mutant
# Assay type: cell-based
# Details: EC50 compound / EC50 DTG
Classify by measured ratio of the EC50s (our compound relative to DTG) against R231K: class 1 if it is equal to or exceeds 2, class 0 if it is smaller.

These solved cases illustrate the format of a correct answer.
Item smiles | Category
COC(=O)CNc1c(C(=O)NCc2ccc(F)cc2F)c(=O)n(O)c2ncccc12 | class 1
O=C(NCc1ccc(F)cc1F)c1c(O)c2c(CO)ccnc2n(O)c1=O | class 0
CS(=O)(=O)CCc1cnc2c(c1)c(N)c(C(=O)NCc1ccc(F)cc1F)c(=O)n2O | class 1
Nc1c(C(=O)NCc2ccc(F)cc2F)c(=O)n(O)c2ncc(CCCCCCO)cc12 | class 0
Nc1c(C(=O)NCc2ccc(F)cc2F)c(=O)n(O)c2ncc(CCS(=O)(=O)c3ccccc3)cc12 | class 0

Does the compound Nc1c(C(=O)NCc2ccc(F)cc2F)c(=O)n(O)c2ncc(CCS(=O)(=O)CCN3CCOCC3)cc12 have recorded ratio of the EC50s (our compound relative to DTG) against R231K that is 2 or more?
class 1

Try this compound too: O=C(NCc1ccc(F)cc1F)c1c(O)c2cc(CCS(=O)(=O)c3ccccc3)cnc2n(O)c1=O
class 1

====

Below: a set of entries, each annotated with reported ratio of the EC50s (our compound relative to DTG) against G118R.
# Tested on: HIV-1 IN mutant G118R
# Assay: single-round infectivity assay, G118R IN mutant
# Format: cell-based
# Details: EC50 compound / EC50 DTG
// no unit string in output, number only

These recorded examples may help you get a feel for the data.
Molecule | Readout number
O=C(NCc1ccc(F)cc1F)c1c(O)c2c(CO)ccnc2n(O)c1=O [5j] | 2.3
COC(=O)CNc1c(C(=O)NCc2ccc(F)cc2F)c(=O)n(O)c2ncccc12 [5′g] | 13.1

--- query ---
Which ratio of the EC50s (our compound relative to DTG) against G118R reading was recorded for the molecule Nc1c(C(=O)NCc2ccc(F)cc2F)c(=O)n(O)c2ncc(CCCCCCO)cc12 [4d] ?
0.5

====

Below: a set of entries, each annotated with reported EC50.
# Test system: HIV-1 IN mutant S119R
# Assay: single-round infectivity assay, S119R IN mutant
# Assay type: cell-based
# Details: Human immunodeficiency virus 1, read-out: EC50 values S119R
Expressed in nM, but write only the number.

These recorded examples may help you get a feel for the data.
Molecule | Target under test | Value unit | EC50
Nc1c(C(=O)NCc2ccc(F)cc2F)c(=O)n(O)c2ncc(CCS(=O)(=O)c3ccccc3)cc12 | HIV-1 IN mutant S119R | nM | 2.6
COC(=O)CNc1c(C(=O)NCc2ccc(F)cc2F)c(=O)n(O)c2ncccc12 | HIV-1 IN mutant S119R | nM | 22.3

--- query ---
Which EC50 reading was recorded for the molecule C[C@@H]1CCO[C@H]2Cn3cc(C(=O)NCc4ccc(F)cc4F)c(=O)c(O)c3C(=O)N12 [DTG, dolutegravir, reference compound] ?
2.3
